ASSAY SYSTEM: Serine/threonine-protein kinase 16 (Homo sapiens) (UniProt O75716)
Sequence (O75716 whole entry, looked up): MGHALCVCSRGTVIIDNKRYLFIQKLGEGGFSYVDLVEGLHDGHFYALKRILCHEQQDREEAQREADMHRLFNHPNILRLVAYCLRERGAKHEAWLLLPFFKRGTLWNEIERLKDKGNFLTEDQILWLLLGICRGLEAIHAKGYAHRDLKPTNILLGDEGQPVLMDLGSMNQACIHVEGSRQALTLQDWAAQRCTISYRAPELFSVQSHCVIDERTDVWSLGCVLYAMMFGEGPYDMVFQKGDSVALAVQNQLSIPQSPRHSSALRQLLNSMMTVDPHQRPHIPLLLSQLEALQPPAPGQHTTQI
MEASUREMENT DESCRIPTION: ligand-induced STK16 melting temperature shift – biophysical, recombinant human kinase, DSF (AID 395)
REPORTED CONDITIONS: recombinant STK16, DSF thermal shift, SYPRO orange; at 10 µM; protein 2 µM; buffer 10 mM HEPES; pH 7.5; NaCl 150 mM; hits give high values
OBSERVATION TYPE: Tm shift

[[record]]
molecule = "CC(C)c1nn(-c2c(Cl)cccc2Cl)c2nc(Cc3ccc(OCCO)cc3)[nH]c(=O)c12"
result = "3.5 °C"

[[record]]
molecule = "NC(=O)Nc1sc(-c2ccccc2)cc1C(N)=O"
result = "4.5 °C"

[[record]]
molecule = "OCC(O)CCO/N=C1/C(c2c(O)[nH]c3ccccc23)=Nc2ccccc21 (centres undefined)"
result = "11.7 °C"

[[record]]
molecule = "Cc1cc(Nc2nc(-c3ccccc3)nc3ccccc23)n[nH]1"
result = "11.1 °C"

[[record]]
molecule = "O=c1c(O)c(-c2ccc(O)c(O)c2)oc2cc(O)cc(O)c12"
result = "4.75 °C"

[[record]]
molecule = "Cn1cc(/C=C2\\C(=O)Nc3ccc(S(N)(=O)=O)cc32)c2ccccc21"
result = "4.8 °C"

[[record]]
molecule = "COc1cc(C2Oc3cc(O)cc(O)c3C(=O)C2=O)ccc1O (centres undefined)"
result = "3.97 °C"

[[record]]
molecule = "O=c1c(O)c(-c2ccc(O)c(O)c2)oc2cc(O)ccc12"
result = "8.54 °C"

[[record]]
molecule = "CC1N=C2SC=CN2C(=O)C1CCN1CCC(=C(c2ccccc2)c2ccc(F)cc2)CC1 (centres undefined)"
result = "3.2 °C"


---

ASSAY SYSTEM: Serine/threonine-protein kinase 16 (Homo sapiens) (UniProt O75716)
MEASUREMENT DESCRIPTION: ligand-induced STK16 melting temperature shift – biophysical, recombinant human kinase, DSF (AID 395)
REPORTED CONDITIONS: recombinant STK16, DSF thermal shift, SYPRO orange; at 10 µM; protein 2 µM; buffer 10 mM HEPES; hits give high values
Recorded Tm shift values for a group of compounds are listed next.
OBSERVATION TYPE: Tm shift

[[record]]
structure_smiles_string = "O=c1c(O)c(-c2ccc(O)c(O)c2)oc2cc(O)cc(O)c12"
result = "4.78 °C"

[[record]]
structure_smiles_string = "Fc1ccc(CNc2ccc3ncc(-c4ccco4)n3n2)cc1"
result = "4.18 °C"

[[record]]
structure_smiles_string = "Cc1cc(C=C2C(=O)C=CC2=O)cc(C)c1O"
result = "3.24 °C"

[[record]]
structure_smiles_string = "Clc1cccc(Nc2ccn3ncc(-c4ccsc4)c3n2)c1"
result = "3.69 °C"

[[record]]
structure_smiles_string = "CC(C)(C)c1nc2c3cc[nH]c(=O)c3c3cc(F)ccc3c2[nH]1"
result = "3.46 °C"

[[record]]
structure_smiles_string = "O=Nc1c(-c2c(O)[nH]c3ccccc23)[nH]c2ccccc12"
result = "5.13 °C"

[[record]]
structure_smiles_string = "O=C1Nc2ccccc2/C1=C\\c1cnc[nH]1"
result = "7.49 °C"

[[record]]
structure_smiles_string = "c1csc(-c2cnc3ccc(NCC4CC4)nn23)c1"
result = "4.3 °C"

